molecular target: various mutants of kinase EGFR (BaF3 cell lines stably transfected with kinase) (Homo sapiens); construct: other: BaF3 cells stably transfected with EGFR Δ19Del; MTS, 48 h; other: BaF3 cell line stably transfected with EGFR Δ19Del; experiment: Growth inhibitory activity of compounds on BaF3 cell lines stably transfected with kinase (MTS, 48 h); format: cell-based; conditions: BaF3 cell line stably transfected with EGFR Δ19Del, read-out: Δ19Del growth inhibitory activity IC50
Sequence (P00533 with tags, fused parts or gaps DEL746-750): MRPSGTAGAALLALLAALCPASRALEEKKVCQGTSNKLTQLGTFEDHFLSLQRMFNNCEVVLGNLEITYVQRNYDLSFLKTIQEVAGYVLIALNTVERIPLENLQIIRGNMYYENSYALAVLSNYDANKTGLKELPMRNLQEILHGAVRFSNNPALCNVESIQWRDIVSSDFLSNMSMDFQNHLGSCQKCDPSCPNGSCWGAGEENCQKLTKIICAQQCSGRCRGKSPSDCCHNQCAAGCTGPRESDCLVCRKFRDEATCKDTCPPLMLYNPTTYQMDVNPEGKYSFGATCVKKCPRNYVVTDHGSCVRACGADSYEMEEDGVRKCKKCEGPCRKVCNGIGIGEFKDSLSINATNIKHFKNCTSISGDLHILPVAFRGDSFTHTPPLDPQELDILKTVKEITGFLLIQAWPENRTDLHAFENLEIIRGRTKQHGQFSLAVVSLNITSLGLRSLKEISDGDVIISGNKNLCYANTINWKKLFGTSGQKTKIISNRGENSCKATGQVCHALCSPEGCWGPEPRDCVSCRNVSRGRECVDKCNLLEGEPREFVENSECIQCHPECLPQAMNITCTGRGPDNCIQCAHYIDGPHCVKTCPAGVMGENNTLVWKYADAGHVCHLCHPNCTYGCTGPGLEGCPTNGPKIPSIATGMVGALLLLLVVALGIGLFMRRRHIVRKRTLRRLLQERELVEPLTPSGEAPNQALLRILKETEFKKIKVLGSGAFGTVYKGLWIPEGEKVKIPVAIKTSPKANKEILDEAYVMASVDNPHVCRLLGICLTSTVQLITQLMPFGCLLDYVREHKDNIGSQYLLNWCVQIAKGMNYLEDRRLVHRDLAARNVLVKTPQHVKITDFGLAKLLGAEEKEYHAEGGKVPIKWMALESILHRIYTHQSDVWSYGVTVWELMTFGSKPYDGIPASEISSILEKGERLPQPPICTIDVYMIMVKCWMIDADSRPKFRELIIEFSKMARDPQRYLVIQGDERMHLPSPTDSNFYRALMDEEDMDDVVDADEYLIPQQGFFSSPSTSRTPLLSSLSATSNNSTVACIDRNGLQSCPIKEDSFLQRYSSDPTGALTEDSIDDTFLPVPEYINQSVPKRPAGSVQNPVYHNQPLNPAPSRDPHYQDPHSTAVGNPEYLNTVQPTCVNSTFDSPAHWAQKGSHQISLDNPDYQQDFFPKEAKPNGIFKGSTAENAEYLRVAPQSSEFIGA
Parameter: IC50. Scope: all listed entries.

Worked cases, IC50 given:
given_smiles: COc1cc(N2CCC(N3CCN(C)CC3)CC2)ccc1Nc1ncc(Br)c(Nc2ccc3nccnc3c2NS(=O)(=O)C(C)C)n1
IC50: 50 to 500 nM
//
given_smiles: COc1cc(N2CCC(N3CCN(C)CC3)CC2)ccc1Nc1ncc(C(C)C)c(Nc2ccc3nccnc3c2N(C)S(C)(=O)=O)n1
IC50: 50 to 500 nM
//
given_smiles: CCS(=O)(=O)N(C)c1c(Nc2nc(Nc3cc(N4CCC(O)CC4)ccc3OC)ncc2Cl)ccc2nccnc12
IC50: 50 to 500 nM
//
given_smiles: COc1cc(N2CCC(N3CCN(C)CC3)CC2)c(C)cc1Nc1nc(Nc2ccc3nccnc3c2N(C)S(C)(=O)=O)c2occc2n1
IC50: 50 to 500 nM
//
given_smiles: COc1cc(N2CCC(N3CCN(C)CC3)CC2)c(C)cc1Nc1nc(Nc2ccc3nccnc3c2N(C)S(C)(=O)=O)c2ccsc2n1
IC50: 500 to 2500 nM

IN: Note down IC50 recorded for COc1cc(N2CCC(N(C)C)CC2)c(C)cc1Nc1nc(Nc2ccc3nccnc3c2N(C)S(C)(=O)=O)c2[nH]ccc2n1
OUT: 500 to 2500 nM

IN: Tell me its IC50 given COc1cc(N2CCC(N3CCN(C)CC3)CC2)c(CC2CC2)cc1Nc1ncc(Br)c(Nc2ccc3nccnc3c2NS(C)(=O)=O)n1 as the entry.
OUT: 50 to 500 nM
